# SYSTEM_UNDER_TEST: T1, huCD33-G69-Fc recombinant protein (human, UniProt P20138 18-259);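 also: biolayer interferometry: scFvs captured from periplasmic extracts on anti-V5-loaded streptavidin biosensors, antigen association for 2 min, buffer dissociation for 5 min, 1:1 Langmuir fit giving off-rate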
# T1 construct: extracellular domain; also called CD33 R69G
# ASSAY_OVERVIEW: BLI
PARAMETER: binding result

Polypeptide No. 113 (scFv, V domains shown, scFv) VH: QVQLVQSGAEVKKPGSSVKVSCKASGGTFSSYDINWVRQAPGQGLEWMGGLIPVFGTTHYAQNFQGRVTITADESTSTAYMELSSLRSEDTAVYYCATGLGVTTSNYYYGMDVWGQGTLVTVSS VL: DIQMTQSPSSLSASVGDRVTITCRASQGIRNDIGWYQQKPGKAPKLLIYAASTLQSGVPSRFSGSGSGTDFTLTISSLQPEDFATYYCQQTYMMPYTFGQGTKLEIKR    binds
Polypeptide No. 143 (scFv, V domains shown, scFv) VH: QVQLVQSGAEVKKPGASVKVSCKASGYTFTGYYMHWVRQAPGQGLEWMGWMNANSGNTGFAQKFQGRVTMTRDTSTSTVYMELSSLRSEDTAVYYCARDSSSWLSGGGWFDPWGQGTLVTVSS VL: DIQMTQSPSSLSASVGDRVTITCRASQSIGTYLSWYQQKPGKAPKLLIYAASSLQSGVPSRFSGSGSGTDFTLTISSLQPEDFATYYCQQSYSSPITFGQGTKLEIKR    binds
Polypeptide No. 109 (scFv, V domains shown, scFv) VH: QVQLVQSGAEVKKPGSSVKVSCKASGYTFTTYGISWVRQAPGQGLEWMGWMNPNSGNTGYAQKFQGRVTITADESTSTAYMELSSLRSEDTAVYYCAREGGDGDYPDYWGQGTLVTVSS VL: EIVMTQSPATLSVSPGERATLSCRASQSISSSSLAWYQQKPGQAPRLLIYGASTRATGIPARFSGSGSGTEFTLTISSLQSEDFAVYYCQQYETAPYTFGQGTKLEIKR    binds
